# System: HBV DNA in HepG2.2.15 cells
# test summary: HBV in vitro dot-blot hybridization test
# Type: cell-based, Hepatitis B virus
# condition details: Hepatitis B virus, HepG2.2.15, dot-blot hybridization assay, read-out: Concentration for 50% inhibition of HBV (EC50)value
pEC50: −log10 of the molar value.
measurement kind: pEC50

INSERT INTO assay_data (compound, target_or_system, measurement_kind, observed_value) VALUES
  ('CCOC(=O)C1=C2CCC(=O)N2C(c2nccs2)=NC1c1ccc(F)cc1Br (racemic)', 'HBV DNA in HepG2.2.15 cells', 'pEC50', '5.30 to 6.00'),
  ('CCOC(=O)C1=C2CN(C(=O)CN)CCN2C(c2nccs2)=N[C@H]1c1ccc(F)cc1Br', 'HBV DNA in HepG2.2.15 cells', 'pEC50', '5.30 to 6.00'),
  ('CCOC(=O)CN(C)C[C@H]1CC2=C(C(=O)OCC)[C@H](c3ccc(F)cc3Br)N=C(c3nccs3)N2C1', 'HBV DNA in HepG2.2.15 cells', 'pEC50', '5.30 to 6.00'),
  ('CCOC(=O)C1=C2CCCN2C(c2nccs2)=NC1c1ccc(F)cc1C (racemic)', 'HBV DNA in HepG2.2.15 cells', 'pEC50', '6.30 to 7.00');

Kindly consider the entry below.
State, in one line, measured pEC50 of CCOC(=O)C1=C2CN(CC(=O)OC)C(=O)CN2C(c2nccs2)=N[C@H]1c1ccc(F)cc1Br 5.30 to 6.00
